B1: LINE1-mini (parent)
chain: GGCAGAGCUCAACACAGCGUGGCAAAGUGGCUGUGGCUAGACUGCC

- Variants of: B1
- ASSAY REMARKS: self-cleavage, relative activity (ratio to wild type); higher = more cleavage; in vitro, sequencing; the parent is a self-cleaving ribozyme
MEASURE NAME: self-cleavage

Measured self-cleavage of C8U G44U : 0.35

response.value for U38A A39U (field: self-cleavage) = 0.85

So for U34A C45U , the logged self-cleavage turned out to be 0.11

// field: self-cleavage; key: A16G U20A ; value = 0.16

Input U9C G27A . Output self-cleavage: 0.03

Item: C15A G36U | self-cleavage: 0.06

Noted for C15G G44C : its self-cleavage reads 0.04

Consider G40U A41U . Its measured self-cleavage is 0.37

The recorded self-cleavage for entry C13A A39G equals 0.15

Kindly note the recorded self-cleavage for A12U U32A , which is 0.04

The variant listed as G22U G44U shows self-cleavage equal to 0.27

The reported self-cleavage of the variant C18U C31A was 0.08

Looking up C8A C13A , I see its self-cleavage listed as 0.67

Query G29A G36U yields self-cleavage of 0.09

Please fill in: self-cleavage reported for A12C U28G = 0.02

Please fill in: self-cleavage reported for A16G U32C = 0.26

Record G5U U20C , field self-cleavage: 0.05

// G22C G40A : self-cleavage value = 0.09

Lab book: self-cleavage of G30U U38A noted as 1

Short answer for G17U C18G : self-cleavage was 0.12

In plain terms, C31U G35A has a documented self-cleavage of 0.03

Briefly, self-cleavage measured for G1C A12G : 0.02

Summary for this variant, A12G C18G : self-cleavage is 0.04

Quick note, self-cleavage for G17C G19U landed at 0.24

get_value(item= G1C G22A , readout=self-cleavage) returns 0.12

Just so you know, measured self-cleavage for C8A A25G came out at 0.23

self-cleavage recorded for this variant, U38C A39U , is 0.7

Please fill in: self-cleavage reported for C37G A41C = 0.02

Item: G27U C42U | self-cleavage: 0.2

Given item G1C C13G , the value recorded as its self-cleavage is 0.04

self-cleavage reported for this variant U28G : 0.64

Field self-cleavage (entry G7C U20G ) reads 0.12

In plain terms, G5A U32G has a documented self-cleavage of 0.04

# self-cleavage (variant: G19A C37A ) is 0.07

Sure, the documented self-cleavage for A12U G33A is 0.05

// self-cleavage lookup, variant = G1C A12U , result: 0.06

Per the record, A11C C42A has self-cleavage of 0.02

// sample C8U A11C , its self-cleavage was 0.07

For record G1A G35C the listed self-cleavage is 0.1

Value of measured self-cleavage for the entry A14C U28G : 0.07

So for G7U G36U , the logged self-cleavage turned out to be 0.05

Entry A4G A12U , self-cleavage reported as 0.11

get_value(item= C31A G36U , readout=self-cleavage) returns 0.12

// self-cleavage value for C8G C45U : 0.06

Value of measured self-cleavage for the entry C18U G19C : 0.56

// recorded self-cleavage for C8G C13G : 0.04

Lookup result for A25G C37A ; measured self-cleavage: 0.05

Record summary for U20A C45A : reported self-cleavage = 0.77

Looking up A6U A12C , I see its self-cleavage listed as 0.04

Entry under test: G2C C31U . Its self-cleavage was 0.08

get_value(item= U9G C18U , readout=self-cleavage) returns 0.09

Summary for this variant, G1U G22A : self-cleavage is 0.25

Record G2C U9G , field self-cleavage: 0.07

Consider C31U G33C . Its measured self-cleavage is 0.15

So for A6C G40U , the logged self-cleavage turned out to be 0.15

Entry A11G G30C ; self-cleavage = 0.04

Form: variant = G5A C37G ; self-cleavage = 0.05

// field: self-cleavage; key: G1U C46G ; value = 0.74

self-cleavage reported for this variant G17U A39C : 0.04

Data point: G19A G29C ; self-cleavage = 1.31

The variant A11G U38G showed self-cleavage equal to 0.02

Summary for this variant, C3U G17U : self-cleavage is 0.12

Please fill in: self-cleavage reported for G2C A39C = 0.09

// sample A4C U43A , its self-cleavage was 0.06

Per the records, this variant ( G2U U9C ) has self-cleavage equal to 0.01

self-cleavage reported for this variant A16C G17A : 0.07

For this variant ( A14U C23A ), measured self-cleavage is 0.65
